Data provenance is patent US5681685A.

- method: Degraded rate of squarylium compound in photosensitive resin solution with 2,4,6-tris(trichloromethyl)-s-triazine (Example 7)
- Format: physicochemical
- condition.label: 40° C., 3 days, light-screened, ethyl cellosolve, relative to Compound (A)
- Experimental: 0.5 g of pentaerythritol triacrylate, 0.5 g of butyl methacrylate/acrylic acid copolymer (weight-average molecular weight 3,100, copolymerization ratio 66/34), 60 mg of 2,4,6-tris(trichloromethyl)-s-triazine and 2 mg of a squarylium compound were dissolved in ethyl cellosolve to 25 ml to give a photosensitive resin solution. […] The absorbance at the maximum absorption wavelength present in 600 to 700 nm was measured with a spectrophotometer before (A1) and after (A2) being allowed to stand. […]
readout.name: Relative value of degraded rate

>>> recorded_value("CCN1C(=CC2=C([O-])C(=CC3=[N+](CC)c4ccc5ccccc5c4C3(C)C)C2=O)C(C)(C)c2c1ccc1ccccc21")
0.34
>>> recorded_value("CC(C)CCN1C(=CC2=C([O-])C(=CC3=[N+](CCC(C)C)c4ccc5ccccc5c4C3(C)C)C2=O)C(C)(C)c2c1ccc1ccccc21")
0.32
>>> recorded_value("CCCCN1C(=CC2=C([O-])C(=CC3=[N+](CCCC)c4ccc5ccccc5c4C3(C)C)C2=O)C(C)(C)c2c1ccc1ccccc21 [Compound 7]")
0.31
>>> recorded_value("CCCCCN1C(=CC2=C([O-])C(=CC3=[N+](CCCCC)c4ccc5ccccc5c4C3(C)C)C2=O)C(C)(C)c2c1ccc1ccccc21")
0.28

I: CCCCCCN1C(=CC2=C([O-])C(=CC3=[N+](CCCCCC)c4ccc5ccccc5c4C3(C)C)C2=O)C(C)(C)c2c1ccc1ccccc21
II: CC(C)CN1C(=CC2=C([O-])C(=CC3=[N+](CC(C)C)c4ccc5ccccc5c4C3(C)C)C2=O)C(C)(C)c2c1ccc1ccccc21
When the recorded Relative value of degraded rate values are compared, which is smaller: that of I or that of II ? Use the label to indicate which entry you chose. II

====

- method: Optical absorption property in chloroform
- Format: physicochemical
- condition.label: solvent chloroform
readout.name: λ max (nm)

>>> recorded_value("CC(C)CN1C(=CC2=C([O-])C(=CC3=[N+](CC(C)C)c4ccc5ccccc5c4C3(C)C)C2=O)C(C)(C)c2c1ccc1ccccc21")
669
>>> recorded_value("CC(C)N1C(=CC2=C([O-])C(=CC3=[N+](C(C)C)c4ccc5ccccc5c4C3(C)C)C2=O)C(C)(C)c2c1ccc1ccccc21")
666
>>> recorded_value("CCCN1C(=CC2=C([O-])C(=CC3=[N+](CCC)c4ccc5ccccc5c4C3(C)C)C2=O)C(C)(C)c2c1ccc1ccccc21")
667
>>> recorded_value("CC(C)CCN1C(=CC2=C([O-])C(=CC3=[N+](CCC(C)C)c4ccc5ccccc5c4C3(C)C)C2=O)C(C)(C)c2c1ccc1ccccc21")
667
>>> recorded_value("CCCCCN1C(=CC2=C([O-])C(=CC3=[N+](CCCCC)c4ccc5ccccc5c4C3(C)C)C2=O)C(C)(C)c2c1ccc1ccccc21")
667
>>> recorded_value("CCCCCCN1C(=CC2=C([O-])C(=CC3=[N+](CCCCCC)c4ccc5ccccc5c4C3(C)C)C2=O)C(C)(C)c2c1ccc1ccccc21")
668
